# STUDY SYSTEM: TNKS2 (Homo sapiens (Human))
# Sequence (Q9H2K2 whole entry): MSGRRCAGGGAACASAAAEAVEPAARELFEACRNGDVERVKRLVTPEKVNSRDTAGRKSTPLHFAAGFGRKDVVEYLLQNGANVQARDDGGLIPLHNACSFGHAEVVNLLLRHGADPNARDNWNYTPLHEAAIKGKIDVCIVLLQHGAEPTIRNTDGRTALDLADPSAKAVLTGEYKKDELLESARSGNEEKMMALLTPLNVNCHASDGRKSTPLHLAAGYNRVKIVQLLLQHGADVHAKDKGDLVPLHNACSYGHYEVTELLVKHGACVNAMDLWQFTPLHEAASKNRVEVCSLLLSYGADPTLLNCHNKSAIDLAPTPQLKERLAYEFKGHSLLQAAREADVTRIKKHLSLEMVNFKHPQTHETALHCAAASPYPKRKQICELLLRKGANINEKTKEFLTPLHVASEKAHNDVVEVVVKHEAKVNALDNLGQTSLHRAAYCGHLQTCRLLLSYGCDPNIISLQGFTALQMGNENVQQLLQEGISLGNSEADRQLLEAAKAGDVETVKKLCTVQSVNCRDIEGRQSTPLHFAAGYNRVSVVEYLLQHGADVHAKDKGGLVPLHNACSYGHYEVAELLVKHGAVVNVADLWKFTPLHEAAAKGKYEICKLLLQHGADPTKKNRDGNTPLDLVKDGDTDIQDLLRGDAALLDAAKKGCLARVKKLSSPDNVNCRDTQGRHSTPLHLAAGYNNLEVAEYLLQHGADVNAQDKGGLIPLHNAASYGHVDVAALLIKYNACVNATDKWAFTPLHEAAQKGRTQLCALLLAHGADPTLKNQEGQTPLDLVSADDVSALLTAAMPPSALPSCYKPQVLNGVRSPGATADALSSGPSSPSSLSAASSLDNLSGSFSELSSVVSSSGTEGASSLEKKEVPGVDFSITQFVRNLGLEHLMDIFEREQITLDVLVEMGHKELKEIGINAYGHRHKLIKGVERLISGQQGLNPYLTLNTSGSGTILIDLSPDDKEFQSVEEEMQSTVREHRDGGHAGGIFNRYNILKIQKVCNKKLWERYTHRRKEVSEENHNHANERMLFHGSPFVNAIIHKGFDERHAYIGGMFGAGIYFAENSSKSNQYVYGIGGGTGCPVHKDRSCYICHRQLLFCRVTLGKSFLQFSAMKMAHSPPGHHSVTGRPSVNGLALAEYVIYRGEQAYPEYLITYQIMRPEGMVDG
# TEST METHOD NOTES: Biochemical IC50 TNKS2
# EXPERIMENTAL SETUP: read-out: Biochemical IC50 TNKS2
Below, each of the compounds is paired with its reported IC50 value.
READOUT LABEL: IC50 (nM)

{"COMPOUND": "CCOc1ccc(-c2nnc([C@H]3C[C@H](NC(=O)c4cn(C)cn4)C3)n2-c2ccccc2F)nc1 [Example 117]", "STUDY SYSTEM": "TNKS2 (Homo sapiens (Human))", "UOM": "nM", "READOUT VALUE": 87}
{"COMPOUND": "CCOc1ccc(-c2nnc([C@H]3C[C@H](NC(=O)c4cccc(C#N)n4)C3)n2-c2ccccc2F)nc1 [Example 53]", "STUDY SYSTEM": "TNKS2 (Homo sapiens (Human))", "UOM": "nM", "READOUT VALUE": 3.7}
{"COMPOUND": "CCOc1ccc(-c2nnc(C34CC(NC(=O)c5ccnc6cccnc56)(C3)C4)n2-c2ccncc2)nc1 [Example 172]", "STUDY SYSTEM": "TNKS2 (Homo sapiens (Human))", "UOM": "nM", "READOUT VALUE": 9.4}
{"COMPOUND": "O=C(N[C@H]1C[C@H](c2nnc(-c3ccccn3)n2-c2ccccc2F)C1)c1cc(F)cc2nccnc12 [Example 194]", "STUDY SYSTEM": "TNKS2 (Homo sapiens (Human))", "UOM": "nM", "READOUT VALUE": 2}
{"COMPOUND": "O=C(N[C@H]1C[C@H](c2nnc(-c3nccs3)n2-c2ccccc2)C1)c1ccccc1 [Example 34]", "STUDY SYSTEM": "TNKS2 (Homo sapiens (Human))", "UOM": "nM", "READOUT VALUE": 290}
{"COMPOUND": "O=C(N[C@H]1C[C@H](c2nnc(-c3nccs3)n2-c2ccccn2)C1)c1cccc2cccnc12 [Example 38]", "STUDY SYSTEM": "TNKS2 (Homo sapiens (Human))", "UOM": "nM", "READOUT VALUE": 45}
{"COMPOUND": "O=C(N[C@H]1C[C@H](c2nnc(-c3ccccn3)n2-c2ccccc2F)C1)c1cccc2nccnc12 [Example 193]", "STUDY SYSTEM": "TNKS2 (Homo sapiens (Human))", "UOM": "nM", "READOUT VALUE": 1.6}
{"COMPOUND": "CCOc1ccc(-c2nnc([C@H]3C[C@H](NC(=O)c4cccc5cccnc45)C3)n2-c2ccc(C)s2)nc1 [Example 83]", "STUDY SYSTEM": "TNKS2 (Homo sapiens (Human))", "UOM": "nM", "READOUT VALUE": 2.4}
{"COMPOUND": "CCOc1ccc(-c2nnc([C@H]3C[C@H](NC(=O)c4cc5occc5[nH]4)C3)n2-c2ccccc2F)nc1 [Example 151]", "STUDY SYSTEM": "TNKS2 (Homo sapiens (Human))", "UOM": "nM", "READOUT VALUE": 14}
{"COMPOUND": "CCOc1ccc(-c2nnc(C34CC(NC(=O)c5ccccn5)(C3)C4)n2-c2ccccc2)nc1 [Example 66]", "STUDY SYSTEM": "TNKS2 (Homo sapiens (Human))", "UOM": "nM", "READOUT VALUE": 35}
{"COMPOUND": "O=C(N[C@H]1C[C@H](c2nnc(-c3nccs3)n2-c2cccnc2)C1)c1cccc2cccnc12 [Example 114]", "STUDY SYSTEM": "TNKS2 (Homo sapiens (Human))", "UOM": "nM", "READOUT VALUE": 20}
{"COMPOUND": "CCOc1ccc(-c2nnc([C@H]3C[C@H](NC(=O)c4cccc(C(C)O)n4)C3)n2-c2ccccc2F)nc1 (stereo partly drawn) [Example 128]", "STUDY SYSTEM": "TNKS2 (Homo sapiens (Human))", "UOM": "nM", "READOUT VALUE": 37}
{"COMPOUND": "O=C(N[C@H]1C[C@H](c2nnc(-c3nccs3)n2-c2ccccn2)C1)c1ccnc2cccnc12 [Example 37]", "STUDY SYSTEM": "TNKS2 (Homo sapiens (Human))", "UOM": "nM", "READOUT VALUE": 25}
{"COMPOUND": "O=C(N[C@H]1C[C@H](c2nnc(-c3ccncn3)n2-c2ccccc2Cl)C1)c1ccccn1 [Example 10]", "STUDY SYSTEM": "TNKS2 (Homo sapiens (Human))", "UOM": "nM", "READOUT VALUE": 1.5}
{"COMPOUND": "CCOc1ccc(-c2nnc([C@H]3C[C@H](NC(=O)c4ccnc5cccnc45)C3)n2-c2cccnc2)nc1 [Example 162]", "STUDY SYSTEM": "TNKS2 (Homo sapiens (Human))", "UOM": "nM", "READOUT VALUE": 4.5}
